Ki tested on Thymidylate synthase (Homo sapiens): recorded values
Sequence (P04818 whole entry): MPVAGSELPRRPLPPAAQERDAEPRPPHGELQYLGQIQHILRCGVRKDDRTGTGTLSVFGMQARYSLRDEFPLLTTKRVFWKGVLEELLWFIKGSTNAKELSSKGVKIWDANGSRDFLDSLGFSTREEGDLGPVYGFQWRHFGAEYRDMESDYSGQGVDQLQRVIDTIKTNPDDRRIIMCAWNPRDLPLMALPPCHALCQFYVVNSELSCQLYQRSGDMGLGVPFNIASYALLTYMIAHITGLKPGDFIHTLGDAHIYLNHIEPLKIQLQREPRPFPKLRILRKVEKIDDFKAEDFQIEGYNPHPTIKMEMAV

INSERT INTO measurements (smiles_input, test_value) VALUES
  ('O=C1/C(=N/c2ccccc2)c2cccc3cccc1c23', '> 309 µM'),
  ('O=C1C(=O)c2ccc(Oc3ccc([N+](=O)[O-])cc3)c3cccc1c23', '> 98 µM');

Entry "Cc1onc(-c2ccccc2Cl)c1C(=O)Nc1cc2c3c(cccc3c1)C(=O)OC2=O" : reported Ki = ?
> 826 µM

Then "O=C1OCc2cccc3cccc1c23" ?
47 µM

Then "O=C1OC(=O)c2cc([N+](=O)[O-])cc3cccc1c23" ?
> 206 µM

Then "O=C1Sc2cccc3cccc1c23" ?
3.1 µM

Then "O=C(Nc1cc2c3c(cccc3c1)C(=O)OC2=O)c1ccc(C(F)(F)F)cc1" ?
> 206 µM

Then "CC1(C)C(=O)c2cccc3cccc(c23)C1=O" ?
33 µM

Then "O=C1OC(=O)c2ccc(SCCO)c3cccc1c23" ?
> 474 µM

Then "O=C(/C=C/c1cccc(C(F)(F)F)c1)Nc1cc2c3c(cccc3c1)C(=O)OC2=O" ?
> 206 µM
